Listed here are variants together with their documented self-cleavage.
B1: CPEB3 Ribozyme (parent)
chain: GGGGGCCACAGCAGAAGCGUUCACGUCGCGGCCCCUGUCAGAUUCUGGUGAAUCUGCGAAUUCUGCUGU

Variants of: B1
procedureDetails: self-cleavage, relative activity (ratio to wild type); higher = more cleavage; co-transcriptional
Respond with the number and no other words.

Worked cases, self-cleavage given:
Qu. Recorded self-cleavage of A40G U64G , please.
Ans. 0.796

Qu. Okay, and G14A C34U ?
Ans. 0.751

Qu. Same question for C12G A59U please.
Ans. 0.4

Qu. Could you do the same for U61G U69C , please?
Ans. 0.697

Qu. Input C32A A52G
Ans. 0.431

***
Qu. Can you share its self-cleavage? I mean this variant: C18A U26G
Ans. 0.118

Qu. Can you check U44C G65A next?
Ans. 0.519
